Test system: HeLa Kyoto;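 further: synchronized HeLa Kyoto cells, proteins quantified by TMT10plex mass spectrometry, three biological replicates, mitosis taken 0.5 h after nocodazole release, G1/S directly after double thymidine block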
Assay: thermal stability score vs G1/S (z-score of summed log2 fold changes over temperatures); higher = more thermally stable than in G1/S
Conditions: cell cycle stage: early G1 (4.5 h after nocodazole release)

SEQUENCE INPUT: MAVARLAAVAAWVPCRSWGWAAVPFGPHRGLSVLLARIPQRAPRWLPACRQKTSLSFLNRPDLPNLAYKKLKGKSPGIIFIPGYLSYMNGTKALAIEEFCKSLGHACIRFDYSGVGSSDGNSEESTLGKWRKDVLSIIDDLADGPQILVGSSLGGWLMLHAAIARPEKVVALIGVATAADTLVTKFNQLPVELKKEVEMKGVWSMPSKYSEEGVYNVQYSFIKEAEHHCLLHSPIPVNCPIRLLHGMKDDIVPWHTSMQVADRVLSTDVDVILRKHSDHRMREKADIQLLVYTIDDLIDKLSTIVN [ABHD10]
thermal stability score: 1.29
//
SEQUENCE INPUT: MTSLTQRSSGLVQRRTEASRNAADKERAAGGGAGSSEDDAQSRRDEQDDDDKGDSKETRLTLMEEVLLLGLKDREGYTSFWNDCISSGLRGCMLIELALRGRLQLEACGMRRKSLLTRKVICKSDAPTGDVLLDEALKHVKETQPPETVQNWIELLSGETWNPLKLHYQLRNVRERLAKNLVEKGVLTTEKQNFLLFDMTTHPLTNNNIKQRLIKKVQEAVLDKWVNDPHRMDRRLLALIYLAHASDVLENAFAPLLDEQYDLATKRVRQLLDLDPEVECLKANTNEVLWAVVAAFTK [GOLPH3]
thermal stability score: 0.551
//
SEQUENCE INPUT: MVPGAAGWCCLVLWLPACVAAHGFRIHDYLYFQVLSPGDIRYIFTATPAKDFGGIFHTRYEQIHLVPAEPPEACGELSNGFFIQDQIALVERGGCSFLSKTRVVQEHGGRAVIISDNAVDNDSFYVEMIQDSTQRTADIPALFLLGRDGYMIRRSLEQHGLPWAIISIPVNVTSIPTFELLQPPWTFW [PRADC1]
thermal stability score: -2.33
//
SEQUENCE INPUT: MNHSERFVFIAEWYDPNASLLRRYELLFYPGDGSVEMHDVKNHRTFLKRTKYDNLHLEDLFIGNKVNVFSRQLVLIDYGDQYTARQLGSRKEKTLALIKPDAISKAGEIIEIINKAGFTITKLKMMMLSRKEALDFHVDHQSRPFFNELIQFITTGPIIAMEILRDDAICEWKRLLGPANSGVARTDASESIRALFGTDGIRNAAHGPDSFASAAREMELFFPSSGGCGPANTAKFTNCTCCIVKPHAVSEGLLGKILMAIRDAGFEISAMQMFNMDRVNVEEFYEVYKGVVTEYHDMVTEMYSGPCVAMEIQQNNATKTFREFCGPADPEIARHLRPGTLRAIFGKTKIQNAVHCTDLPEDGLLEVQYFFKILDN [NME7]
thermal stability score: 0.587
//
SEQUENCE INPUT: MDNYADLSDTELTTLLRRYNIPHGPVVGSTRRLYEKKIFEYETQRRRLSPPSSSAASSYSFSDLNSTRGDADMYDLPKKEDALLYQSKGYNDDYYEESYFTTRTYGEPESAGPSRAVRQSVTSFPDADAFHHQVHDDDLLSSSEEECKDRERPMYGRDSAYQSITHYRPVSASRSSLDLSYYPTSSSTSFMSSSSSSSSWLTRRAIRPENRAPGAGLGQDRQVPLWGQLLLFLVFVIVLFFIYHFMQAEEGNPF [EMD]
thermal stability score: -0.609
//
SEQUENCE INPUT: MSKYKLIMLRHGEGAWNKENRFCSWVDQKLNSEGMEEARNCGKQLKALNFEFDLVFTSVLNRSIHTAWLILEELGQEWVPVESSWRLNERHYGALIGLNREQMALNHGEEQVRLWRRSYNVTPPPIEESHPYYQEIYNDRRYKVCDVPLDQLPRSESLKDVLERLLPYWNERIAPEVLRGKTILISAHGNSSRALLKHLEGISDEDIINITLPTGVPILLELDENLRAVGPHQFLGDQEAIQAAIKKVEDQGKVKQAKK [BPGM]
thermal stability score: 1.51
//
SEQUENCE INPUT: MEDPQSKEPAGEAVALALLESPRPEGGEEPPRPSPEETQQCKFDGQETKGSKFITSSASDFSDPVYKEIAITNGCINRMSKEELRAKLSEFKLETRGVKDVLKKRLKNYYKKQKLMLKESNFADSYYDYICIIDFEATCEEGNPPEFVHEIIEFPVVLLNTHTLEIEDTFQQYVRPEINTQLSDFCISLTGITQDQVDRADTFPQVLKKVIDWMKLKELGTKYKYSLLTDGSWDMSKFLNIQCQLSRLKYPPFAKKWINIRKSYGNFYKVPRSQTKLTIMLEKLGMDYDGRPHCGLDDSKNIARIAVRMLQDGCELRINEKMHAGQLMSVSSSLPIEGTPPPQMPHFRK [ERI1]
thermal stability score: -0.616
//
SEQUENCE INPUT: MPFPFGKSHKSPADIVKNLKESMAVLEKQDISDKKAEKATEEVSKNLVAMKEILYGTNEKEPQTEAVAQLAQELYNSGLLSTLVADLQLIDFEGKKDVAQIFNNILRRQIGTRTPTVEYICTQQNILFMLLKGYESPEIALNCGIMLRECIRHEPLAKIILWSEQFYDFFRYVEMSTFDIASDAFATFKDLLTRHKLLSAEFLEQHYDRFFSEYEKLLHSENYVTKRQSLKLLGELLLDRHNFTIMTKYISKPENLKLMMNLLRDKSRNIQFEAFHVFKVFVANPNKTQPILDILLKNQAKLIEFLSKFQNDRTEDEQFNDEKTYLVKQIRDLKRPAQQEA [CAB39]
thermal stability score: 0.362
//
SEQUENCE INPUT: MLRPAGLWRLCRRPWAARVPAENLGRREVTSGVSPRGSTSPRTLNIFDRDLKRKQKNWAARQPEPTKFDYLKEEVGSRIADRVYDIPRNFPLALDLGCGRGYIAQYLNKETIGKFFQADIAENALKNSSETEIPTVSVLADEEFLPFKENTFDLVVSSLSLHWVNDLPRALEQIHYILKPDGVFIGAMFGGDTLYELRCSLQLAETEREGGFSPHISPFTAVNDLGHLLGRAGFNTLTVDTDEIQVNYPGMFELMEDLQGMGESNCAWNRKALLHRDTMLAAAAVYREMYRNEDGSVPATYQIYYMIGWKYHESQARPAERGSATVSFGELGKINNLMPPGKKSQ [NDUFAF5]
thermal stability score: 0.357
//
SEQUENCE INPUT: MAAAALRRFWSRRRAEAGDAVVAKPGVWARLGSWARALLRDYAEACRDASAEARARPGRAAVYVGLLGGAAACFTLAPSEGAFEEALLEASGTLLLLAPATRNRESEAFVQRLLWLRGRGRLRYVNLGLCSLVYEAPFDAQASLYQARCRYLQPRWTDFPGRVLDVGFVGRWWVLGAWMRDCDINDDEFLHLPAHLRVVGPQQLHSETNERLFDEKYKPVVLTDDQVDQALWEEQVLQKEKKDRLALSQAHSLVQAEAPR [C19ORF52]
thermal stability score: 0.683

These entries and their values trace back to the supplement of paper PMC5998384.
